# subjectOfTest: T1, human VISTA (ECD)-his (Sino Biological, Cat #:13482-H08H) (human, UniProt Q9H7M9 33-194)
# T1 construct: extracellular domain; Bought protein; also called hVISTA(ECD)-his; recombinant human VISTA(ECD)-his; not shown: his tag
# T1 sequence (looked up): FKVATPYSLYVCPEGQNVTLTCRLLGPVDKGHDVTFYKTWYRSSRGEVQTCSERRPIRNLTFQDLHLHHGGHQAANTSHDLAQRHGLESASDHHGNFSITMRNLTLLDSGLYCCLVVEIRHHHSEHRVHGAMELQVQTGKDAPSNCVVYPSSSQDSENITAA
# experimentDescription: ELISA, plate coated with human VISTA (ECD)-his, OD450 [panel A]

# binder, EC50 (read off the curve)
rows = [
    ("chimeric 161E5 antibody (antibody, human IgG1, kappa, V domains shown) VH: QVQLKQSGAELVRPGASVKLSCKASGYSFTDYYINWVKQRPGQGLEWIARIFPGSGNAYYNEKFKDKATLTVEKSSSAAYMQLSSLTSEDSAVYFCARDDSFYGYWYFDVWGTGTTVTVSS VL: NIMMTQSPSSLAVSAGEKVTMSCKSSQSVLYSSNQKNYLAWYQQKPGQSPKLLIYWASTRESGVPDRFTGSGSGTDFTLTISSVQAEDLAVYYCHQYLSSYTFGGGTKLEIKR", "~0.03 µg/mL"),
    ("161E5-VH2VL2 (antibody, human IgG1, kappa, V domains shown, One of the 5 humanized 161E5 antibodies, human IgG1/kappa; also called humanized antibody 161E5-VH2VL2) VH: QVQLVQSGAEVKKPGASVKVSCKASGYSFTDYYINWVRQAPGQGLEWIARIFPGSGNAYYNEKFKDRATLTVDKSTSTAYMELSSLRSEDTAVYYCARDDSFYGYWYFDVWGQGTTVTVSS VL: NIMMTQSPATLSVSPGERATLSCKSSQSVLYSSNQKNYLAWYQQKPGQAPRLLIYWASTRESGVPDRFSGSGSGTEFTLTISSLQSEDFAVYYCHQYLSSYTFGGGTKVEIKR", "~0.03 µg/mL"),
    ("161E5-VH2VL3 (antibody, human IgG1, kappa, V domains shown, One of the 5 humanized 161E5 antibodies, human IgG1/kappa; also called humanized antibody 161E5VH2VL3) VH: QVQLVQSGAEVKKPGASVKVSCKASGYSFTDYYINWVRQAPGQGLEWIARIFPGSGNAYYNEKFKDRATLTVDKSTSTAYMELSSLRSEDTAVYYCARDDSFYGYWYFDVWGQGTTVTVSS VL: NIMMTQSPATLSVSPGERATLSCKSSQSVLYSSNQKNYLAWYQQKPGQSPRLLIYWASTRESGVPDRFSGSGSGTEFTLTISSLQSEDFAVYYCHQYLSSYTFGGGTKVEIKR", "~0.03 µg/mL"),
    ("161E5-VH3VL2 (antibody, human IgG1, kappa, V domains shown, One of the 5 humanized 161E5 antibodies, human IgG1/kappa; also called humanized antibody 161E5-VH3VL2) VH: QVQLVQSGAEVKKPGASVKVSCKASGYSFTDYYINWVRQRPGQGLEWIARIFPGSGNAYYNEKFKDRATLTVDKSTSTAYMELSSLRSEDTAVYFCARDDSFYGYWYFDVWGQGTTVTVSS VL: NIMMTQSPATLSVSPGERATLSCKSSQSVLYSSNQKNYLAWYQQKPGQAPRLLIYWASTRESGVPDRFSGSGSGTEFTLTISSLQSEDFAVYYCHQYLSSYTFGGGTKVEIKR", "~0.03 µg/mL"),
]
